Tested System: T1, ALPI His homodimer (Homo sapiens, UniProt P09923)
T1 sequence (P09923 with tags, fused parts or gaps): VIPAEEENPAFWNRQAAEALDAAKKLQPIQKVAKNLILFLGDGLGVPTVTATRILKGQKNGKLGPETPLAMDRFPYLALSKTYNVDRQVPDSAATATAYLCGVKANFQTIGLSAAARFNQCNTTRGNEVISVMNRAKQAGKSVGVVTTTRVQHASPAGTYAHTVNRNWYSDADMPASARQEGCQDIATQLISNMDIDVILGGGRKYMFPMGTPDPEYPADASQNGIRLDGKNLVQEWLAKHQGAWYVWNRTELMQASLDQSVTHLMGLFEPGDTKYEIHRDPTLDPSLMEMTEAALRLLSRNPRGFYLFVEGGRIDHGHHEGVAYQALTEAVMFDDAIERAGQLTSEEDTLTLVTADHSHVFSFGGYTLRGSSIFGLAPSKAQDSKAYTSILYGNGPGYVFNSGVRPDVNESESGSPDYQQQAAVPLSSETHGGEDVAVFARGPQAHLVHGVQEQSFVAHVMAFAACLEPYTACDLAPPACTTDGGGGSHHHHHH
Measurement Protocol: ELISA binding to ALPI
Condition Parameters: 500 ng purified VHH

Molecule	ELISA hALPI
F12: ALPP targeting VHH domain, SEQ ID NO: 37 (protein) VHH: QVQLVESGGGLVEAGGSLRLSCAVSGSALSDYNIGWFRQAPGKEREFVARKTWDGSSTKYDDSVKGRFTVSIDNAKNTAYLQMNSLKTEDTAVYYCAAGRYSRVRGWEYDYWGQRTQVTVSS	No Binding
B01: ALPP/ALPPL2 targeting VHH domain, SEQ ID NO: 20 (protein) VHH: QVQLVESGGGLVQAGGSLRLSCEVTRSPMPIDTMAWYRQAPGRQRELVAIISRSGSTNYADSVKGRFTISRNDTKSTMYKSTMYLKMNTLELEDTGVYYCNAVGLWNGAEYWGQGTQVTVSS	No Binding
F05: ALPP/ALPPL2 targeting VHH domain, SEQ ID NO: 34 (protein) VHH: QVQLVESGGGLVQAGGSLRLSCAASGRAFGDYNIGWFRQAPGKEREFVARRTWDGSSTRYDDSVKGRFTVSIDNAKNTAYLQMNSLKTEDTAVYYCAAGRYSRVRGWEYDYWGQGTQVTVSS	No Binding
